molecular target: Amine oxidase [flavin-containing] B (Homo sapiens, UniProt P27338); assay: Inhibition of human recombinant MAO-B expressed in baculovirus infected insect cell microsomes assessed as p-tyramine conversion to resorufin and H2O2 after 15 mins by fluorimetric assay
Sequence (P27338 whole entry): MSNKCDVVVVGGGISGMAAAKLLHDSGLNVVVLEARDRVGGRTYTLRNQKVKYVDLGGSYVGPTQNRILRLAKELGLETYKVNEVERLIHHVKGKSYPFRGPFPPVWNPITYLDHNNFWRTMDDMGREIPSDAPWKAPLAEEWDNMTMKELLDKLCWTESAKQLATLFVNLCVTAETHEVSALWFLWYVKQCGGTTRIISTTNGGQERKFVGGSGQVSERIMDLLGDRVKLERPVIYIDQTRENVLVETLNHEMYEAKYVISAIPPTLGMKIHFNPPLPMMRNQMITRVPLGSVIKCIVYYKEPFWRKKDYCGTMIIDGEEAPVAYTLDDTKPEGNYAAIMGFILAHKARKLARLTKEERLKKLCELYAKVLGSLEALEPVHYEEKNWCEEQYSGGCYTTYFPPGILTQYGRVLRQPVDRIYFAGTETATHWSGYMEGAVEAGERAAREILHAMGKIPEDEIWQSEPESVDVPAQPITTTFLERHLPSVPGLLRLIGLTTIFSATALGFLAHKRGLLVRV
recorded-endpoint: IC50

# compound, target, recorded-endpoint, reading
measured = [
    ("Cc1ccccc1NC(=O)c1cc2cc([N+](=O)[O-])ccc2oc1=O", "Amine oxidase [flavin-containing] B (Homo sapiens, UniProt P27338)", "IC50", "29.4 µM"),
    ("COc1ccccc1NC(=O)c1cc2cc([N+](=O)[O-])ccc2oc1=O", "Amine oxidase [flavin-containing] B (Homo sapiens, UniProt P27338)", "IC50", "50 µM"),
    ("CCC(C)NC(=O)c1cc2cc([N+](=O)[O-])ccc2oc1=O (stereo unspecified)", "Amine oxidase [flavin-containing] B (Homo sapiens, UniProt P27338)", "IC50", "19.1 µM"),
    ("COc1ccccc1NC(=O)c1cc2ccccc2oc1=O", "Amine oxidase [flavin-containing] B (Homo sapiens, UniProt P27338)", "IC50", "35.4 µM"),
    ("CC(C)(C)NC(=O)c1cc2cc(Br)cc(Br)c2oc1=O", "Amine oxidase [flavin-containing] B (Homo sapiens, UniProt P27338)", "IC50", "14.7 µM"),
    ("Cc1ccccc1NC(=O)c1cc2ccccc2oc1=O", "Amine oxidase [flavin-containing] B (Homo sapiens, UniProt P27338)", "IC50", "2.96 µM"),
    ("COc1ccccc1NC(=O)c1cc2cc(Br)cc(Br)c2oc1=O", "Amine oxidase [flavin-containing] B (Homo sapiens, UniProt P27338)", "IC50", "20.2 µM"),
    ("Cc1ccccc1NC(=O)c1cc2cc(Br)cc(Br)c2oc1=O", "Amine oxidase [flavin-containing] B (Homo sapiens, UniProt P27338)", "IC50", "4.68 µM"),
]

Req: Give the reported value of IC50 for this record: O=C(NCCCN1CCOCC1)c1cc2cc(Br)cc(Br)c2oc1=O
Resp: 10.6 µM

Req: Give the reported value of IC50 for this record: CCCCCCN(CCCCCC)C(=O)c1cc2ccccc2oc1=O
Resp: 8.05 µM

Req: Give the reported value of IC50 for this record: O=C(Nc1cccc(C(F)(F)F)c1)c1cc2cc(Br)cc(Br)c2oc1=O
Resp: 7.09 µM

Req: Give the reported value of IC50 for this record: O=C(NCCCN1CCOCC1)c1cc2ccccc2oc1=O
Resp: 13.5 µM
